biological target: Hypoxia-inducible factor 1-alpha (Homo sapiens); test: ATG_HIF1a_CIS: Attagene CIS-FACTORIAL HepG2 Assay for human Hypoxia Inducible Factor 1 (HIF1A) (AID 2282951); settings: HepG2 Attagene cis-factorial HIF1a reporter transcription; actives raise or lower the signal
The source made the active and inactive calls. How the source made its calls: active means hit-call score of the fitted dose curve at least 0.9, where 1 is the maximum; inactive means score below 0.9.
Possible outcomes: active, inactive

compound	experimental.target	assigned.category
CCOP(=S)(OCC)SCn1c(=O)oc2cc(Cl)ccc21	Hypoxia-inducible factor 1-alpha (Homo sapiens)	active
CCOc1cc(Oc2ccc(C(F)(F)F)cc2Cl)ccc1[N+](=O)[O-]	Hypoxia-inducible factor 1-alpha (Homo sapiens)	inactive
CS/C(C)=N/OC(=O)N(C)SN(C)C(=O)O/N=C(\C)SC	Hypoxia-inducible factor 1-alpha (Homo sapiens)	inactive
CON(C)C(=O)Nc1ccc(Cl)c(Cl)c1	Hypoxia-inducible factor 1-alpha (Homo sapiens)	inactive
CC1COC(Cn2cncn2)(c2ccc(Oc3ccc(Cl)cc3)cc2Cl)O1 (stereo unspecified)	Hypoxia-inducible factor 1-alpha (Homo sapiens)	inactive
COc1nc(C)nc(NC(=O)NS(=O)(=O)c2ccccc2Cl)n1	Hypoxia-inducible factor 1-alpha (Homo sapiens)	inactive
CCCCNC(=O)OCC#CI	Hypoxia-inducible factor 1-alpha (Homo sapiens)	inactive
Fc1ccc(Oc2ccnc3cc(Cl)cc(Cl)c23)cc1	Hypoxia-inducible factor 1-alpha (Homo sapiens)	inactive
COP(=S)(OC)Oc1nc(Cl)c(Cl)cc1Cl	Hypoxia-inducible factor 1-alpha (Homo sapiens)	inactive
Oc1ccccc1-c1ccccc1	Hypoxia-inducible factor 1-alpha (Homo sapiens)	inactive
COC(=O)c1ccccc1C(=O)OC	Hypoxia-inducible factor 1-alpha (Homo sapiens)	inactive
Cc1c(F)c(F)c(COC(=O)C2C(/C=C(\Cl)C(F)(F)F)C2(C)C)c(F)c1F (stereo unspecified)	Hypoxia-inducible factor 1-alpha (Homo sapiens)	inactive
CNC(=S)S	Hypoxia-inducible factor 1-alpha (Homo sapiens)	inactive
COC(=O)C(C)Oc1ccc(Oc2ccc(Cl)cc2Cl)cc1 (stereo unspecified)	Hypoxia-inducible factor 1-alpha (Homo sapiens)	inactive
CCCN(CCC)c1c([N+](=O)[O-])cc(S(N)(=O)=O)cc1[N+](=O)[O-]	Hypoxia-inducible factor 1-alpha (Homo sapiens)	inactive
CNC(=O)ON=CC(C)(C)SC	Hypoxia-inducible factor 1-alpha (Homo sapiens)	inactive
COP(N)(=O)SC (stereo unspecified)	Hypoxia-inducible factor 1-alpha (Homo sapiens)	inactive
COC(=O)N(OC)c1ccccc1COc1ccn(-c2ccc(Cl)cc2)n1	Hypoxia-inducible factor 1-alpha (Homo sapiens)	inactive
Cc1cc(Cl)ccc1OCC(=O)O	Hypoxia-inducible factor 1-alpha (Homo sapiens)	inactive
CO/C=C(/C(=O)OC)c1ccccc1Oc1cc(Oc2ccccc2C#N)ncn1	Hypoxia-inducible factor 1-alpha (Homo sapiens)	inactive
O=C(O)COc1nc(Cl)c(Cl)cc1Cl	Hypoxia-inducible factor 1-alpha (Homo sapiens)	inactive
CCNc1nc(Cl)nc(NC(C)C)n1	Hypoxia-inducible factor 1-alpha (Homo sapiens)	inactive
N#Cc1cc(Br)c(O)c(Br)c1	Hypoxia-inducible factor 1-alpha (Homo sapiens)	inactive
CCc1nn(C)c(C(=O)NCc2ccc(C(C)(C)C)cc2)c1Cl	Hypoxia-inducible factor 1-alpha (Homo sapiens)	inactive
C=CCC1=C(C)[C@@H](OC(=O)[C@@H]2[C@@H](C=C(C)C)C2(C)C)CC1=O	Hypoxia-inducible factor 1-alpha (Homo sapiens)	inactive
CCNc1nc(Cl)nc(NCC)n1	Hypoxia-inducible factor 1-alpha (Homo sapiens)	inactive
